Below: a set of entries, each annotated with reported solubility at 2 h.
assay: Test for solubility according to pH; assay type: physicochemical; conditions: 37 °C, pH 1.2, simulated gastric fluid, thermodynamic from solid, first solution pH about 1.2, 2 mg/mL, 37° C. 2 hours; read-out: Solubility (μg/mL) pH 1.2

molecule: O=C(c1ccc(O)c(C(F)(F)F)c1)N1CCOc2ccncc21 [Compound 12]
unit.abbrev: µg/mL
value.comparator: =
solubility at 2 h: 1880
//
molecule: O=C(c1ccc(O)c(Cl)c1)N1CCOc2ccncc21 [Compound 37]
unit.abbrev: µg/mL
value.comparator: =
solubility at 2 h: 1930
//
molecule: O=C(c1cc(Br)c(O)c(Br)c1)N1CCOc2ccncc21 [Compound 71]
unit.abbrev: µg/mL
value.comparator: =
solubility at 2 h: 2140
//
molecule: O=C(c1cc(Br)c(O)c(Br)c1)N1CCOc2ncc(C(F)(F)F)cc21 [Compound 22-2]
unit.abbrev: µg/mL
value.comparator: <
solubility at 2 h: 0.1

====

molecular target: CYP2C9 (Homo sapiens); assay: biochemical
pIC50: −log10 of the molar value.
Some compounds, each annotated with its measured pIC50.

compound: O=C(c1ccc(O)c(C(F)(F)F)c1)N1CCOc2ccncc21
pIC50: < 4.22
//
compound: O=C(c1cc(Br)c(O)c(Br)c1)N1CCOc2ccncc21 [Compound 71]
pIC50: < 4.70
//
compound: O=C(c1cc(Br)c(O)c(Br)c1)N1CCOc2ncc(C3CC3)cc21
pIC50: < 4.70
//
compound: Br.O=C(c1cc(Cl)c(O)c(Cl)c1)N1CCOc2ccncc21
pIC50: < 4.22
//
compound: COc1c(Br)cc(C(=O)N2CCOc3ncc(C)cc32)cc1Br
pIC50: < 4.70
//
compound: COc1c(Br)cc(C(=O)N2CCOc3ncc(C(F)(F)F)cc32)cc1Br
pIC50: 4.87
//
compound: CC1(C)CN(C(=O)c2cc(Br)c(O)c(Br)c2)c2cnccc2O1
pIC50: < 4.70
//
compound: O=C(c1cc(O)nc(O)n1)N1CCOc2ccncc21
pIC50: < 4.70
//
compound: COC(=O)COc1c(Br)cc(C(=O)N2CCOc3ccncc32)cc1Br
pIC50: < 4.70
//
compound: O=C(c1ccc(O)c(Cl)c1)N1CCOc2ccncc21 [Compound 10]
pIC50: < 4.22
//
compound: O=C(c1cc(O)no1)N1CCOc2ccncc21
pIC50: < 4.70
//
compound: O=S(=O)(c1cc(Br)c(O)c(Br)c1)N1CCOc2ccncc21
pIC50: < 4.70

====

molecular target: CYP2C9 (Homo sapiens); test: biochemical
pIC50: −log10 of the molar value.

molecule: O=C(CN1CCOc2ccncc21)c1cc(Br)c(O)c(Br)c1 [Compound 54]
test.system: CYP2C9 (Homo sapiens)
pIC50: < 5.22
--
molecule: N#Cc1cnc2c(c1)N(C(=O)c1cc(Br)c(O)c(Br)c1)CCO2 [Compound 47-2]
test.system: CYP2C9 (Homo sapiens)
pIC50: < 4.70
--
molecule: O=C(c1cc(Cl)nc(Cl)c1)N1CCOc2ccncc21 [Compound 31]
test.system: CYP2C9 (Homo sapiens)
pIC50: < 4.70

====

biological target: CYP2C9 (Homo sapiens, UniProt P11712); assay: biochemical
Sequence (P11712 whole entry): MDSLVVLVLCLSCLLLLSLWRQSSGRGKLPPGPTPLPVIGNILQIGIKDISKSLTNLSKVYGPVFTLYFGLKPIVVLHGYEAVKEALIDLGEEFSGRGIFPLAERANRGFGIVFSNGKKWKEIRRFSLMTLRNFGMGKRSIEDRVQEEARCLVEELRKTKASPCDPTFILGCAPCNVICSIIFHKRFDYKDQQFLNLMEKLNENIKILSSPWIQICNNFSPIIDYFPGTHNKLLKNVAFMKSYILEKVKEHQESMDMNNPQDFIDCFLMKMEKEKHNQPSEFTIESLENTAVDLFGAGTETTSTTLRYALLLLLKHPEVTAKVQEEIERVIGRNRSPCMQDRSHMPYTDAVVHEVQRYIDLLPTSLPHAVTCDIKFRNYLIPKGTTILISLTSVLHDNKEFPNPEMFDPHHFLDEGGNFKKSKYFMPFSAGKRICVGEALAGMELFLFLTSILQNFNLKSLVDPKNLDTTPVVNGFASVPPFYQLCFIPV
pIC50: −log10 of the molar value.
metric.name: pIC50

compound: O=C(c1ccc(O)c(Br)c1)N1CCOc2ccncc21 [Compound 11]
test.system: CYP2C9 (Homo sapiens, UniProt P11712)
metric.name: pIC50
value.comparator: <
experimental.value: 4.22
--
compound: O=C(c1cc(Br)c(O)c(Br)c1)N1CCOc2ncccc21
test.system: CYP2C9 (Homo sapiens, UniProt P11712)
metric.name: pIC50
value.comparator: =
experimental.value: 4.92
--
compound: O=C1CCCN1c1cnc2c(c1)N(C(=O)c1cc(Br)c(O)c(Br)c1)CCO2
test.system: CYP2C9 (Homo sapiens, UniProt P11712)
metric.name: pIC50
value.comparator: =
experimental.value: 4.94
--
compound: O=C(c1cc(Cl)c(O)c(Cl)c1)N1CCOc2cnccc21 [Compound 41]
test.system: CYP2C9 (Homo sapiens, UniProt P11712)
metric.name: pIC50
value.comparator: <
experimental.value: 4.70
--
compound: O=C(c1ccc(O)c(Br)c1)N1CCOc2cnccc21 [Compound 40]
test.system: CYP2C9 (Homo sapiens, UniProt P11712)
metric.name: pIC50
value.comparator: =
experimental.value: 4.82
--
compound: O=C(c1cc(Br)c(O)c(Br)c1)N1CCOc2cnccc21
test.system: CYP2C9 (Homo sapiens, UniProt P11712)
metric.name: pIC50
value.comparator: =
experimental.value: 5.52
--
compound: N#Cc1ccc(-c2cnc3c(c2)N(C(=O)c2cc(Br)c(O)c(Br)c2)CCO3)cc1
test.system: CYP2C9 (Homo sapiens, UniProt P11712)
metric.name: pIC50
value.comparator: =
experimental.value: 4.91
--
compound: O=S(=O)(c1ccc(O)cc1)N1CCOc2ccncc21
test.system: CYP2C9 (Homo sapiens, UniProt P11712)
metric.name: pIC50
value.comparator: <
experimental.value: 4.70
--
compound: O=C(c1cc(Br)c(O)c(Br)c1)N1CCOc2ncc(Br)cc21
test.system: CYP2C9 (Homo sapiens, UniProt P11712)
metric.name: pIC50
value.comparator: <
experimental.value: 4.70
--
compound: O=C(c1ccc(O)c(C(F)(F)F)c1)N1CCOc2cnccc21
test.system: CYP2C9 (Homo sapiens, UniProt P11712)
metric.name: pIC50
value.comparator: =
experimental.value: 5.17
